Please respond with reported EC50 With Cross-linker (nM), NF-κB signaling for every item in the list.
Molecular target: T1, human OX40 expressed on cells (human, UniProt P43489 29-277)
T1 sequence: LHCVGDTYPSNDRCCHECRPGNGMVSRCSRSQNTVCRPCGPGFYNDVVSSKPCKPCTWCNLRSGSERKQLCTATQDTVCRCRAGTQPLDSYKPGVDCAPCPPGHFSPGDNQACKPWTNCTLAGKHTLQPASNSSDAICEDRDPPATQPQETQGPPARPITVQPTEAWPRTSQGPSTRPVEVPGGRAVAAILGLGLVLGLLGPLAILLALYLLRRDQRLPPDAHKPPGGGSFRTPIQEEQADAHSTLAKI
Experiment: cell-based or functional assay
Hi! Could you send only the number? It should be in nM, unit omitted.

**Q:** What value of EC50 With Cross-linker (nM), NF-κB signaling has been reported for the following binder? 106-222 (antibody, human IgG1, V domains shown, 2013/0280275) VH: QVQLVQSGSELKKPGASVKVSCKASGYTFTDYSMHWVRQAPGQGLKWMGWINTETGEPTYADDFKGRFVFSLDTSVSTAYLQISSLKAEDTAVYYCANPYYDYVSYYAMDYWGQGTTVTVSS VL: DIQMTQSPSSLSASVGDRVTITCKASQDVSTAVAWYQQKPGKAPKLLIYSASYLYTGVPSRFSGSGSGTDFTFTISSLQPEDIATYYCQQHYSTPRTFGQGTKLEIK
**A:** 0.63

**Q:** What value of EC50 With Cross-linker (nM), NF-κB signaling has been reported for the following binder? 18D8 (antibody, human IgG1, V domains shown, also called literature anti-OX40 antibody 18D8) VH: EVQLVESGGGLVQPGRLSRLSCAASGFTFDDYAMHWVRQAPGKGLEWVSGISWNSGSIGYADSVKGRFTISRENAKNSLYLQMNSLRAEDTALYYCAKDQSTADYYFYYGMDVWGQGTTVTVSS VL: EIVVTQSPATLSLSPGERATLSCRASQSVSSYLAWYQQKPGQAPRLLIYDASNRATGIPARFSGSGSGTDFTLTISSLEPEDFAVYYCQQRSNWPTFGQGTKVEIK
**A:** 0.5

**Q:** What value of EC50 With Cross-linker (nM), NF-κB signaling has been reported for the following binder? 119-122 (antibody, human IgG1, V domains shown) VH: EVQLVESGGGLVQPGGSLRLSCAASEYEFPSHDMSWVRQAPGKGLELVAAINSDGGSTYYPDTMERRFTISRDNAKNSLYLQMNSLRAEDTAVYYCARHYDDYYAWFAYWGQGTMVTVSS VL: EIVLTQSPATLSLSPGERATLSCRASKSVSTSGYSYMHWYQQKPGQAPRLLIYLASNLESGVPARFSGSGSGTDFTLTISSLEPEDFAVYYCQHSRELPLTFGGGTKVEIK
**A:** 0.34

**Q:** What value of EC50 With Cross-linker (nM), NF-κB signaling has been reported for the following binder? Hu3738 (antibody, V domains shown, Humanized antibody; also called exemplary anti-OX40 antibody Hu3738; Hu3738 VH.1b / Hu3738 VL.1) VH: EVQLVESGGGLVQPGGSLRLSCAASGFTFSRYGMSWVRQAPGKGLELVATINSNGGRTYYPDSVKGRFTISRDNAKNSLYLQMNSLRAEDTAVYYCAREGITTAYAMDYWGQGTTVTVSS VL: DIVMTQSPDSLAVSLGERATINCKASQSVDYDGDSYMHWYQQKPGQPPKLLIYAASILESGVPDRFSGSGSGTDFTLTISSLQAEDVAVYYCQQSNEDPRTFGGGTKVEIKR
**A:** 0.088
